ASSAY_SYSTEM: SARS-CoV-2 Main Protease (SARS-CoV-2)
STUDY_CONDITIONS: 20.0 µM
Measured inhibition by item
METRIC: inhibition (%)

COMPOUND	ASSAY_SYSTEM	UNITS_LABEL	NUMERIC_VALUE
O=C(CCl)N1CCN(C(c2ccccc2)C2CCCCC2)CC1 (configuration not stated)	SARS-CoV-2 Main Protease (SARS-CoV-2)	%	95.8
Cc1ccncc1NC(=O)[C@@]12COC[C@@H]1C2 (stereo in doubt)	SARS-CoV-2 Main Protease (SARS-CoV-2)	%	-0.441
CC(NC(=O)CCl)c1cc(F)cc(Cl)c1 (configuration not stated)	SARS-CoV-2 Main Protease (SARS-CoV-2)	%	40.6
C=CC(=O)N(c1ccc(N(C)C)c(C)c1)C(C(=O)Nc1ccc(Br)cc1)c1cccnc1 (configuration not stated)	SARS-CoV-2 Main Protease (SARS-CoV-2)	%	3.45
O=C1/C(=C/c2ccc(O)cc2)c2ccccc2C(=O)N1Cc1ccc2c(c1)OCO2	SARS-CoV-2 Main Protease (SARS-CoV-2)	%	6.21
O=C(Cc1cccc(Cl)c1)Nc1cccnc1	SARS-CoV-2 Main Protease (SARS-CoV-2)	%	24.1
CCOCC(=O)NCc1ccc(CNC(=O)Cn2nnc3ccccc32)cc1	SARS-CoV-2 Main Protease (SARS-CoV-2)	%	1.82
Cc1cc(Cl)cc(CC2CCN(C(=O)CCl)CC2)c1	SARS-CoV-2 Main Protease (SARS-CoV-2)	%	95.1
Cc1noc([C@@H](C)S(=O)(=O)Cc2cccc(C(F)(F)F)c2)n1 (stereo in doubt)	SARS-CoV-2 Main Protease (SARS-CoV-2)	%	-7.05
C=CC(=O)N(c1cc(C(C)(C)C)on1)C(C(=O)NCCc1cccc(F)c1)c1cccnc1 (configuration not stated)	SARS-CoV-2 Main Protease (SARS-CoV-2)	%	16.7
C=CC(=O)N(c1ccc(N(C)C)c(C)c1)C(C(=O)Nc1ccc(OC)cc1C)c1cccnc1 (configuration not stated)	SARS-CoV-2 Main Protease (SARS-CoV-2)	%	2.51
Cc1ccncc1NC(=O)Cc1cccc(C#N)c1	SARS-CoV-2 Main Protease (SARS-CoV-2)	%	33.6
O=C(Nc1cnn2ccc(N3CCC[C@@H]3c3cc(F)ccc3F)nc12)N1CC[C@H](O)C1 (stereo in doubt)	SARS-CoV-2 Main Protease (SARS-CoV-2)	%	-17.2
Cc1[nH]c2ncnc(NC(=O)c3cccc4c3oc(=O)n4C)c2c1C	SARS-CoV-2 Main Protease (SARS-CoV-2)	%	2.86
Cc1noc(C)c1NC(=O)Cc1cccc(Cl)c1Cl	SARS-CoV-2 Main Protease (SARS-CoV-2)	%	-2.3
CC(CCc1ccccc1)N1CCN(C(=O)CCl)CC1 (configuration not stated)	SARS-CoV-2 Main Protease (SARS-CoV-2)	%	45
CC(C)NC1CCN(c2ccc(S(N)(=O)=O)cc2)CC1	SARS-CoV-2 Main Protease (SARS-CoV-2)	%	-1.27
C=CC(=O)N(c1ccc(C(C)(C)C)cc1)C(C(=O)NC1CC1)c1cccnc1 (configuration not stated)	SARS-CoV-2 Main Protease (SARS-CoV-2)	%	25.4
O=C(Nc1ccc([N+](=O)[O-])cc1)c1cc(Cl)ccc1O	SARS-CoV-2 Main Protease (SARS-CoV-2)	%	-7.24
O=[N+]([O-])c1cnc(Sc2nnc(-c3ccc(Cl)cc3)o2)s1	SARS-CoV-2 Main Protease (SARS-CoV-2)	%	28.9
CCC(=O)Nc1ccc(N(Cc2ccsc2)C(=O)Cn2nnc3ccccc32)cc1	SARS-CoV-2 Main Protease (SARS-CoV-2)	%	79.7
O=C1[C@H](Nc2nccn3cnnc23)CCN1c1cccc(Cl)c1 (stereo in doubt)	SARS-CoV-2 Main Protease (SARS-CoV-2)	%	3.55

* * *

ASSAY_SYSTEM: SARS-CoV-2 Main Protease (SARS-CoV-2) (UniProt P0DTD1)
STUDY_CONDITIONS: 20.0 µM

COMPOUND	ASSAY_SYSTEM	UNITS_LABEL	inhibition
COc1ccccc1OC1CCCN(C(=O)c2cc(=O)[nH]c3ccc(Cl)cc23)C1 (stereo not given)	SARS-CoV-2 Main Protease (SARS-CoV-2) (UniProt P0DTD1)	%	-0.617
O=C(Nc1nncn1C1CC1)C1CCS(=O)(=O)c2ccccc21 (stereo not given)	SARS-CoV-2 Main Protease (SARS-CoV-2) (UniProt P0DTD1)	%	37.6
C=CC(=O)N(c1ccc(C(C)(C)C)cc1)C(C(=O)NCCSC)c1cccnc1 (stereo not given)	SARS-CoV-2 Main Protease (SARS-CoV-2) (UniProt P0DTD1)	%	38.5
Cc1ccncc1NC(=O)[C@@H]1C[C@H]1CF (stereo in doubt)	SARS-CoV-2 Main Protease (SARS-CoV-2) (UniProt P0DTD1)	%	4.1
COc1ccccc1OC(C)CNC(=O)c1cc(=O)[nH]c2cc(F)ccc12 (stereo not given)	SARS-CoV-2 Main Protease (SARS-CoV-2) (UniProt P0DTD1)	%	20

* * *

STUDY_CONDITIONS: 20.0 µM
Measured relative solubility at 20 uM by item

COMPOUND	relative solubility at 20 uM
Cc1ccnc(C)c1NC(=O)NCc1cccc(N2CCOCC2)c1	1
C=CC(=O)N(c1ccc(C(C)(C)CC)cc1)C(C(=O)Nc1ccc(Cl)cc1)c1cccnc1 (stereo not drawn)	0.82
C=CC(=O)N(c1ccc(C(C)(C)C)cc1)C(C(=O)Nc1cccc(F)c1C)c1cccnc1 (stereo not drawn)	1
Cc1ccnc2[nH]c(CC3CCN(C(=O)CCl)CC3)nc12	1
CC(C(=O)Nc1cccc(OC2CC(=O)N2)c1)c1cnccn1 (stereo not drawn)	1
O=C(NC1CCCCC1NC(=O)C1CCCCC1)c1ccncc1 (stereo not drawn)	1
C=CC(=O)N(c1ccc(C(C)(C)C)cc1)C(C(=O)NC(C)(C)C)c1cnccc1C (stereo not drawn)	0.99
CN(CCNC(=O)c1cc(=O)[nH]c2ccccc12)c1ccccc1	0.91
O=C(Cc1cccnc1Cl)Nc1cccc(OCCc2ccccc2)c1	0.81
C=CC(=O)N(c1ccc(C(C)(C)C)cc1)C(C(=O)Nc1ccc(F)cc1)c1cccnc1 (stereo not drawn)	0.98
O=C(NCCN1CCN(C(=O)CCl)CC1)c1ccccc1	1
O=C(CC1(c2ccccc2)CCCC1)Nc1cccnc1	1
Cc1noc(CC(NC(=O)C(C)Cn2ccnc2)c2ccccc2)n1 (stereo not drawn)	1
Cc1ncc2c(n1)CCC(NC(=O)NCc1cccc(N3C(=O)NC4(CCCC4)C3=O)c1)C2 (stereo not drawn)	0.99
COc1cc(Cl)cc(OC(=O)Nc2cccnc2)c1	1
C=CC(=O)N(c1ccc(S(F)(F)(F)(F)F)cc1)C(C(=O)Nc1ccc(OC)cc1C)c1cccnc1 (stereo not drawn)	0.92
COCc1cc(Cl)cc(CN2CCN(C(=O)CCl)CC2)c1	0.98
O=C(CCl)NC(CO)c1cccc(Cl)c1 (stereo not drawn)	1
O=C(NCc1ccno1)c1ccccc1Oc1ccc(Cl)cc1Cl	1
C=CC(=O)N(c1ccc(C(C)C)nc1)C(C(=O)Nc1c(C)cccc1CC)c1cccnc1 (stereo not drawn)	1
O=S(=O)(NCCc1ccccc1)c1ccoc1	1
O=C(C1CCN(c2ccncc2)CC1)N1CCCCC1	0.99
C=CC(=O)N(c1ccc(SC)cc1)C(C(=O)NC(C)(C)C)c1cccnc1 (stereo not drawn)	1

* * *

Measured relative solubility at 100 uM by item
STUDY_CONDITIONS: 100.0 µM

COMPOUND	relative solubility at 100 uM
N#CC(C(=O)Nc1cccc(Cl)c1)C(=O)c1cccs1 (centres undefined)	1
O=C1NC(c2cccnc2)C(=O)N1c1cccc(Cl)c1 (centres undefined)	0.91
CC(C)N(C)C(=O)C1CCN(C(=O)CCl)CC1	1
O=C(C(F)Cl)N1CCCC(c2nc3ccccc3s2)C1 (centres undefined)	0.99
C=CC(=O)N1CCCC(c2nc3ccccc3s2)C1 (centres undefined)	0.99
O=C(Nc1ccccc1)c1cc(Cl)ccc1O	0.89
C=CC(=O)N(c1ccc(N2CCC2)cc1)C(C(=O)NC(C)(C)C)c1cccnc1 (centres undefined)	0.93
O=C(NCc1cnccn1)c1sc2cccc(F)c2c1COc1ccccc1	0.44
COc1ccccc1OC(C)CNC(=O)c1cc(=O)[nH]c2cc(F)ccc12 (centres undefined)	0.99
Cc1ccc(NC(=O)C(C#N)C(=O)CC(C)C)cc1 (centres undefined)	1
CC(c1cccc(NC(=O)Cc2cnccc2Cl)c1)N1CCOCC1 (centres undefined)	0.92
CS(=O)(=O)N1CCN(C(=O)CCl)CC1c1ccccc1 (centres undefined)	1
O=C(NCc1cccnn1)NC(Cc1ccccc1)c1cccs1 (centres undefined)	1
CC(=O)N1CCN(Cc2cn(-c3cccc(S(N)(=O)=O)c3)nn2)CC1	0.97
C=CC(=O)N(C1COC2(CCC2)C1)C(C(=O)NC(C)(C)C)c1cccnc1 (centres undefined)	0.96
CS(=O)(=O)c1oc(-c2ccc(F)cc2)nc1S(=O)(=O)c1ccc(Cl)cc1	0.45
COc1ccc2c(c1)CN(C(=O)CCl)C(c1ccccc1)C2 (centres undefined)	0.96
O=C(O)[C@@H](Cc1nc(=O)cc[nH]1)NC[C@@H]1C[C@@H]2C=C[C@H]1C2 (stereo in doubt)	1
COc1ccc(S(=O)(=O)N2CCN(C(=O)c3cc(=O)[nH]c4cc(F)ccc34)CC2)cc1	0.9
Cc1ccncc1NC(=O)C(C)c1cccc(C#N)c1 (centres undefined)	1
O=C(Nc1cnccc1CO)[C@@H]1COc2ccc(Cl)cc21 (stereo in doubt)	1
Cc1ccncc1NC(=O)Cc1ccccc1	1
NS(=O)(=O)CCc1ccccc1CN1CCN(C(=O)CCl)CC1	1
O=C(NCc1cccnn1)Nc1cccc(N2CCC2=O)c1	1

Reference for the values: the COVID Moonshot data (paper PMC11187573)
